Measured protein stability index values are reported for all entries that follow.
B1: PPP2R2C (parent)
chain: YSSSKGSLRLCDMRAAALCDKHSK

# Variants of: B1
# assaySummary: protein stability index of a GFP-peptide fusion (GPS, HEK-293T) (PSI 1-6); higher = more stable;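 note: lentivirally expressed fusions sorted by FACS into six bins by GFP to DsRed ratio, PSI derived from sequencing read proportions per bin multiplied by bin number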
# conditionLabel: c terminus: a fixed tail appended
// response body must contain only the number

Below, 4 variants whose answers are already recorded.
[[record]]
inputsequence = "YSSSKGSLRLCDRRAAALCDKHSK [M13R]"
obsvalue = 1.68

[[record]]
inputsequence = "YSSSKGSLRDCDMRAAALCDKHSK [L10D]"
obsvalue = 4.23

[[record]]
inputsequence = "YASSKGSLRLCDMRAAALCDKHSK [S2A]"
obsvalue = 2.44

[[record]]
inputsequence = "YSSSKGCLRLCDMRAAALCDKHSK [S7C]"
obsvalue = 1.76


Per the records, this variant ( YSSSKGSLRLCDMREAALCDKHSK [A15E] ) has protein stability index equal to 2.61

GET /value?item= YSSSKGSLRLCDMRAAALCDFHSK [K21F] &field=protein stability index returns 1.95

Query YSISKGSLRLCDMRAAALCDKHSK [S3I] yields protein stability index of 3.06

// recorded protein stability index for YSSSKGALRLCDMRAAALCDKHSK [S7A] : 2.9

GET /value?item= YSSSKGSLRLCDMRAAWLCDKHSK [A17W] &field=protein stability index returns 2.33
